Assign abundance fitness to each entry below.
B1: Double-stranded RNA-binding protein Staufen homolog 1, residues 183 to 249; numbered along this chain, O95793 (parent)
chain: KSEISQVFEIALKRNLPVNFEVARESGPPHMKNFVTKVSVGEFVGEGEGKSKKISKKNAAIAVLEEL

# Variants of: B1
# ASSAY SUMMARY: abundance fitness (aPCA) (normalised: wild type 0, dead -1); higher = more abundant; growth selection in yeast, the domain comes from the species named
# EXPERIMENTAL SETUP: Homo sapiens
Answer using only a numeral; do not append any unit.

Req: Recorded abundance fitness of KSEISQVFEIALKRNLPVNFEVARESGPPHMKNFVTKVSVGEFVGEGEGKSKKISKFNAAIAVLEEL [K57F] , please.
Resp: -0.837

Req: # lookup: abundance fitness of KSEISQVFEIALKRNLPVNFEVARESGPPHMHNFVTKVSVGEFVGEGEGKSKKISKKNAAIAVLEEL [K32H]
Resp: -0.249

Req: Reported abundance fitness for KSEISQVFEIALKRNLPVNFEVARESGPPHMKNFVTKVIVGEFVGEGEGKSKKISKKNAAIAVLEEL [S39I] : what is it?
Resp: -0.12

Req: Reported abundance fitness for KSEISQVFEIALKRNLPVNFEVARESGPPHMKNFVTKVSVGEFVLEGEGKSKKISKKNAAIAVLEEL [G45L] : what is it?
Resp: -0.591

Req: Name the reported abundance fitness value associated with the variant KSEISQVFEIALKRNLPVNFEVARESGPPHMKNFVTKVSVGEFVGEGEGKSKKISKKNAAIKVLEEL [A62K]
Resp: 0.023

Req: Consider the variant KSEISQVDEIALKRNLPVNFEVARESGPPHMKNFVTKVSVGEFVGEGEGKSKKISKKNAAIAVLEEL [F8D] and give its measured abundance fitness.
Resp: -0.408

Req: Which abundance fitness is reported for this variant? KSEISQVFEIALKRNLPVNFEVARESGPPHMKNFVTKVSHGEFVGEGEGKSKKISKKNAAIAVLEEL [V40H]
Resp: -0.783

Req: Consider the variant shown here: KSEISQVFEIALKRNLPVNFEVARESGPPHMKNFVTKVSVGEFVGEGEGKSKKISKKNANIAVLEEL [A60N] What is its recorded abundance fitness?
Resp: -0.739

Req: Which abundance fitness value belongs to KSEISQVFEIALKRNLPVNFEVARESGPPHMKNFVTKVSVGEFVKEGEGKSKKISKKNAAIAVLEEL [G45K] ?
Resp: -0.108

Req: What value of abundance fitness has been recorded for this entry: KSEISQVFEIALKRNLPVNFEVARESGPPHMKNFVTKVSVGEFVGEGEGKIKKISKKNAAIAVLEEL [S51I]
Resp: -0.904

Req: # input variant: KSEISQVFEIALKRNLPVNFEVARESGPPHMKNFVTKNSVGEFVGEGEGKSKKISKKNAAIAVLEEL [V38N] ; wanted: its abundance fitness
Resp: -0.445

Req: Look at this variant and give its reported abundance fitness. KSEHSQVFEIALKRNLPVNFEVARESGPPHMKNFVTKVSVGEFVGEGEGKSKKISKKNAAIAVLEEL [I4H]
Resp: -0.447

Req: Find the recorded abundance fitness belonging to KSEISQVFEIALKRNLPVNFEVARESGPPHMNNFVTKVSVGEFVGEGEGKSKKISKKNAAIAVLEEL [K32N] and report it.
Resp: -0.192

Req: # input variant: KSEISQVFEIALKRNLPVNFEVARESGPPHMKNFVTKVSVGEFVGEGEGKSKKISKKNAVIAVLEEL [A60V] ; wanted: its abundance fitness
Resp: -0.489

Req: I have this variant here, KSEISQVFEIALKRNLPVNFEVARESGPPHMKNFVTKVSVGEFVGEGEGKSKKISKKNAAIAVLEET [L67T] , and I need its recorded abundance fitness.
Resp: -0.6

Req: Query: abundance fitness; subject: KSEISQVFEIALKRNLPVNFEVARESGPPHMKNFVTKVSVGEFVGCGEGKSKKISKKNAAIAVLEEL [E46C]
Resp: -0.034

Req: abundance fitness lookup needed for KSENSQVFEIALKRNLPVNFEVARESGPPHMKNFVTKVSVGEFVGEGEGKSKKISKKNAAIAVLEEL [I4N] , thanks.
Resp: -0.56

Req: Quick one: abundance fitness for KSEISQVFEIALKRNLPVNFEVARESGPPHMKNFVTKVSVHEFVGEGEGKSKKISKKNAAIAVLEEL [G41H] ?
Resp: -0.737

Req: I am curious: what abundance fitness value has been reported for KSEISQVFEIALKFNLPVNFEVARESGPPHMKNFVTKVSVGEFVGEGEGKSKKISKKNAAIAVLEEL [R14F] ?
Resp: -0.232

Req: Bench note: what abundance fitness did KSEISQVFEIALKRNLPVNFEVARESGPPHMKNFVTKVSVGEFVGEGEGKSKPISKKNAAIAVLEEL [K53P] show?
Resp: -0.284

Req: Data request, read-out abundance fitness, for KSEISQVFEIALKRNLPVNFEVARESGPPHMKNFVMKVSVGEFVGEGEGKSKKISKKNAAIAVLEEL [T36M]
Resp: -0.749

Req: Return reported abundance fitness; argument: KSSISQVFEIALKRNLPVNFEVARESGPPHMKNFVTKVSVGEFVGEGEGKSKKISKKNAAIAVLEEL [E3S]
Resp: -0.208

Req: I have this variant here, KSEISQVFEIALKRNLPVNFEVARESGPPHSKNFVTKVSVGEFVGEGEGKSKKISKKNAAIAVLEEL [M31S] , and I need its recorded abundance fitness.
Resp: 0.113

Req: Fill in the blank: the reported abundance fitness of KSEISQVFEIALKRNLEVNFEVARESGPPHMKNFVTKVSVGEFVGEGEGKSKKISKKNAAIAVLEEL [P17E] is ____.
Resp: -0.09

Req: Which value of abundance fitness has been reported for KSEISRVFEIALKRNLPVNFEVARESGPPHMKNFVTKVSVGEFVGEGEGKSKKISKKNAAIAVLEEL [Q6R] in the records?
Resp: -0.097

Req: Which abundance fitness value belongs to KSEISQVFEIALKRNLPVNFEVARESGPPHMKNFVTKVSVGEFVGEGEGKSKKISKKNMAIAVLEEL [A59M] ?
Resp: -0.753

Req: // query abundance fitness value for entry KSEDSQVFEIALKRNLPVNFEVARESGPPHMKNFVTKVSVGEFVGEGEGKSKKISKKNAAIAVLEEL [I4D]
Resp: -0.388

Req: Quick check: abundance fitness of KSEISQVFEIALKRNLPVNFEVARESGPPHMKNFVTKVSVGEFVGEGEGKSKKIWKKNAAIAVLEEL [S55W] ?
Resp: -1

Req: Need abundance fitness of KSEISQVFEIALKRNLPVNFEVARESGPPHMKNFVTKVSVIEFVGEGEGKSKKISKKNAAIAVLEEL [G41I] , thanks.
Resp: -1.41

Req: Fill in the blank: the reported abundance fitness of KSEISQVFEIALKRNLPVNFEVARESGPPHMKNFVTKVSVGEFVAEGEGKSKKISKKNAAIAVLEEL [G45A] is ____.
Resp: 0.069

Req: I would be grateful if you could share the reported abundance fitness for KSEISQVFEIALKRNLPVNFEVARESGPPHMKNFVTKVSVGWFVGEGEGKSKKISKKNAAIAVLEEL [E42W] .
Resp: -0.3

Req: So what's the measured abundance fitness for this one? KSEISQVFEIALKRNLPVNFEVARESGPPHMKNFVTKVSVGYFVGEGEGKSKKISKKNAAIAVLEEL [E42Y]
Resp: -0.131

Req: Form field: reported abundance fitness of KSEISQVFEIALKRNLPVNFEVARESGPPHMRNFVTKVSVGEFVGEGEGKSKKISKKNAAIAVLEEL [K32R]
Resp: -0.052

Req: Item KSEISQVFEIALKRNLPVNFEVARESGPPHMKNFVTKVPVGEFVGEGEGKSKKISKKNAAIAVLEEL [S39P] has what recorded abundance fitness?
Resp: -0.703

Req: abundance fitness for KSEISQVFEIALKRNLPVNFVVARESGPPHMKNFVTKVSVGEFVGEGEGKSKKISKKNAAIAVLEEL [E21V] ?
Resp: -0.023

Req: So what's the measured abundance fitness for this one? KSEISQVFEIALKRNQPVNFEVARESGPPHMKNFVTKVSVGEFVGEGEGKSKKISKKNAAIAVLEEL [L16Q]
Resp: -0.128

Req: Given KSEISQVFEIALKRNLPVNFEVARESGPPLMKNFVTKVSVGEFVGEGEGKSKKISKKNAAIAVLEEL [H30L] , state its recorded abundance fitness.
Resp: -0.255

Req: Reported abundance fitness for KSEISQVFEIALKWNLPVNFEVARESGPPHMKNFVTKVSVGEFVGEGEGKSKKISKKNAAIAVLEEL [R14W] : what is it?
Resp: -0.25

Req: GET /values?readout=abundance fitness&item= KSEISQVFEIALKGNLPVNFEVARESGPPHMKNFVTKVSVGEFVGEGEGKSKKISKKNAAIAVLEEL [R14G]
Resp: -0.361

Req: Entry KSEISQVFEIALKRNLPVNFEVARESGPPHMKNFVTKVSVGEFVGEGEGKSKKISKKNKAIAVLEEL [A59K] : reported abundance fitness = ?
Resp: -0.717

Req: Find the recorded abundance fitness belonging to KSEISQVFEIALKRNNPVNFEVARESGPPHMKNFVTKVSVGEFVGEGEGKSKKISKKNAAIAVLEEL [L16N] and report it.
Resp: -0.716

Req: Returns the measured abundance fitness for the input variant. Input: KSEISQVFEIALKRNLPVNFEVARESGPPHMENFVTKVSVGEFVGEGEGKSKKISKKNAAIAVLEEL [K32E]
Resp: -0.077

Req: Recorded abundance fitness for KSEISQVFEIALKRNLPVNFEVARESGPPHMPNFVTKVSVGEFVGEGEGKSKKISKKNAAIAVLEEL [K32P] , please?
Resp: -0.099

Req: Looking for the measured abundance fitness of KSEISQVFEIALKRNLPVNFEVARESGPPHMKNFVTKVSVGEFVGEGEGKSKKISKKNAAIAVLEEC [L67C] , can you help?
Resp: -0.693

Req: Consider the variant KSEISQVFEIALKRNLPVNFEVARESGPPHMKNFFTKVSVGEFVGEGEGKSKKISKKNAAIAVLEEL [V35F] and give its measured abundance fitness.
Resp: 0.033

Reference source: the Human Domainome abundance scans (Beltran et al. 2025)
